The entries below are paired with their reported IC50.
target system: COX-1 (Ovis aries)
Construct: purchased Cayman 560131
Sequence (P05979 25-600): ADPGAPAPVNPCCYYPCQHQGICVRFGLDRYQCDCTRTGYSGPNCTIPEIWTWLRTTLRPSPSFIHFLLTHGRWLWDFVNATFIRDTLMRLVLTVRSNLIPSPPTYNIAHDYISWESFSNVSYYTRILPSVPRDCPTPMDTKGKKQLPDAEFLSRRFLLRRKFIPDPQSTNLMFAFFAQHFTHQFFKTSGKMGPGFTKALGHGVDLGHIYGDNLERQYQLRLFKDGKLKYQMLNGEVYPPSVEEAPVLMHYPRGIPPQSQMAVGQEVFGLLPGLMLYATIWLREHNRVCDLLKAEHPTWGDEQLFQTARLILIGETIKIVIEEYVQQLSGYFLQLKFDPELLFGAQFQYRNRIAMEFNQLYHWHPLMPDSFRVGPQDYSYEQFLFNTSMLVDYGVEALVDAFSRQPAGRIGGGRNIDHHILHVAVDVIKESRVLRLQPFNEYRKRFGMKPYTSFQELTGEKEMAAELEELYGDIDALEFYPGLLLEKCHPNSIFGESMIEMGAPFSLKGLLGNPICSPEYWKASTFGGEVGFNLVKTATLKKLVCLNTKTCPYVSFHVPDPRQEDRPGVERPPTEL
procedure text: Cyclooxygenase COX-1 inhibitory assay (Cayman COX inhibitor assay kit)
Format: biochemical, ovine
conditions: mean ± SD, n=3; linear regression; read-out: IC50 values COX1 (converted)
recorded endpoint: IC50 (µM)

compound="C=C1C(O)CCC2C1(C)CCC(C)C2(C)CCC1=CC(=O)OC1O (centres unmarked)" recorded_endpoint=IC50 test_result=10.9
compound="CC1=CCCC2C1(C)CCC(C)C2(C)CCC1=CC(=O)OC1O (centres unmarked)" recorded_endpoint=IC50 test_result=9.45
compound="CC1=CCCC2C1(C)CCC(C)C2(C)CCC(=CC(=O)O)CO (centres unmarked) [Compound 2, 16-hydroxy-cleroda-3,13-dien-15-oic acid]" recorded_endpoint=IC50 test_result=30.4
compound="CC1=CCCC2C1(C)CCC(C)C2(C)CCC(C=O)=CC(=O)O (centres unmarked)" recorded_endpoint=IC50 test_result=25.1
compound="C=C1CCCC2C1(C)CCC(C)C2(C)CCC1=CC(=O)OC1O (centres unmarked)" recorded_endpoint=IC50 test_result=11.8
